- Study target: human MGAT-2 (Homo sapiens)
- Assay procedure: MGAT-2 Inhibitory Assay (14C-oleoyl-CoA, Microscint E extraction, SF9 cell lysate)
- Assay type: biochemical
- Parameters: made in house; host or cells: Insect SF9 cells (supernatant of homogenate, unpurified)
- Condition context: human MGAT-2 expressed in SF9 cells, 90 minutes, room temperature; read-out: IC50 in MGAT-2 in vitro assay
pIC50: −log10 of the molar value.
Value type: pIC50

Requested field: pIC50. Item: CC(C)(C)C1CCN(Cc2ccc([C@H](NS(C)(=O)=O)C(F)(F)F)cc2)CC1.Cl [Example 1, hydrochloride] > 7.92

---

- Study target: human MGAT-2 (Homo sapiens, UniProt Q3SYC2)
- Sequence (Q3SYC2 whole entry): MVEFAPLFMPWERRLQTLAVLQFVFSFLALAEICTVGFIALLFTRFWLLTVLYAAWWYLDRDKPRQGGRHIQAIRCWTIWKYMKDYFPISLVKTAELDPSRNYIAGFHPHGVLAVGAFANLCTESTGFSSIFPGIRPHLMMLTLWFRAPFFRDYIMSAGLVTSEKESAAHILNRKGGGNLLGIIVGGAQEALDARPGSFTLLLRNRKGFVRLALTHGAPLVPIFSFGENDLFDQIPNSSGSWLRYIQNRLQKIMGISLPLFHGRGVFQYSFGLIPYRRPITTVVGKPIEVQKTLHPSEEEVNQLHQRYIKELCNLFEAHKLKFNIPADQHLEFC
- Assay procedure: MGAT-2 Cell Assay (Caco-2 cells stably transfected with human MGAT-2, HDG substrate, LC-MS)
- Type: cell-based
- Condition context: Basal Triglyceride Caco 2 Relative IC50, Caco-2 cells expressing human MGAT-2, 4 hours, HDG/DOPC
Value type: pIC50
Give bare numbers, as −log10 of the molar value.

Requested field: pIC50. Item: CC(C)(C)C1CCN(Cc2ccc([C@H](NS(C)(=O)=O)C(F)(F)F)cc2)CC1.Cl [Example 1, hydrochloride] 7.24
